target: T1, cynomolgus IgE (recombinant chimaeric D12 variable region and cynomolgus IgE constant region) (cynomolgus monkey (constant region); …); experiment: HTRF competition; scFv titrated vs Eu-cryptate cynomolgus IgE binding to human FcεRI-Fc; geomean
T1 construct: The entries may hold a leader peptide; also called cyno IgE; cynomolgus monkey IgE
T1 sequence (heavy, as listed by the source limits assumed, chain 1 of 2): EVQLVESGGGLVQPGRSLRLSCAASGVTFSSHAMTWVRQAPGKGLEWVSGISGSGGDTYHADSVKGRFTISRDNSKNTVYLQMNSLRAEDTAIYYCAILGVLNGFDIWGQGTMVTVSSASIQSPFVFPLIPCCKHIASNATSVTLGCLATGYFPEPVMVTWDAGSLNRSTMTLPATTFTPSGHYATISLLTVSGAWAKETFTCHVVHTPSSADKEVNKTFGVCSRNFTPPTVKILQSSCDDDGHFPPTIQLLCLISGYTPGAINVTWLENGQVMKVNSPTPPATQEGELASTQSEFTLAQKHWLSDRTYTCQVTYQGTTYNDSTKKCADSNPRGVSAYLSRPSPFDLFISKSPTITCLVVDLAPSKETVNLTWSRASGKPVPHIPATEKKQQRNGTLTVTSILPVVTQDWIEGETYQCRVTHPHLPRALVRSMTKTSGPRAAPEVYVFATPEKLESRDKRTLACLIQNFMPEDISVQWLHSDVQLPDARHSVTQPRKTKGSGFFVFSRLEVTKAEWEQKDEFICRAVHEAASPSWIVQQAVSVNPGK
T1 sequence (light, as listed by the source limits assumed, chain 2 of 2): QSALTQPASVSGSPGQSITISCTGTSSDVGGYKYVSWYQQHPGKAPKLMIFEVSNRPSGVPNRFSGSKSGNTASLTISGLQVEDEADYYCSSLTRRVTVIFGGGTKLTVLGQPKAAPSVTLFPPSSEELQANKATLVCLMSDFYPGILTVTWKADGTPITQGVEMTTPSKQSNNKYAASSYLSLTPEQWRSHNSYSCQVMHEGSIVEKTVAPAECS
readout kind: IC50 (nM)
Answer in nM, number only, no unit symbol.

These recorded examples may help you get a feel for the data.
binder	readout kind	units	reported result
Antibody 25 scFv (scFv, V domains shown, not shown: small tags and cut ends, Purified scFv) VH: QVQLVQSGAEVKKPGATVKLSCKVYGYIFTDYNIYWVRQAPGKGLEWMGLIDPDNGETFYAEKFQGRATMTADTSSDRAYMELTSLTFEDTATYYCATVTLKSAKGGYDYWGRGTLVTVSS VL: QSVLTQPPSVSGAPGQRVTISCTGSSSNIGAGYDVHWYQQLPGTAPKLLIYDNFNRPSGVPDRFSGSKSGTSASLAIIGLQTEDEADYYCQSYDSNHKTSPFGTGTKLTVL	IC50	nM	86
Antibody 12 scFv (scFv, V domains shown, Purified scFv) VH: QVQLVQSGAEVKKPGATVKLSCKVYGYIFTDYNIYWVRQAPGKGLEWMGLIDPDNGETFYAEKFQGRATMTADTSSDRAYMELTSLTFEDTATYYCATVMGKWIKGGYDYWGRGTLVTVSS VL: QSVLTQPPSVSGAPGQRVTISCTGSSSNIGAGYDVHWYQQLPGTAPKLLIYDNFNRPSGVPDRFSGSKSGTSASLAIIGLQTEDEADYYCQSYDSSIDHSPFGTGTKLTVL	IC50	nM	7
Antibody 26 scFv (scFv, V domains shown, not shown: small tags and cut ends, Purified scFv) VH: QVQLVQSGAEVKKPGATVKLSCKVYGYIFTDYNIYWVRQAPGKGLEWMGLIDPDNGETFYAEKFQGRATMTADTSSDRAYMELTSLTFEDTATYYCATVSLKEAKGGYDYWGRGTLVTVSS VL: QSVLTQPPSVSGAPGQRVTISCTGSSSNIGAGYDVHWYQQLPGTAPKLLIYDNFNRPSGVPDRFSGSKSGTSASLAIIGLQTEDEADYYCQSYDSASRHAPFGTGTKLTVL	IC50	nM	121
Antibody 27 scFv (scFv, V domains shown, not shown: small tags and cut ends, Purified scFv) VH: QVQLVQSGAEVKKPGATVKLSCKVYGYIFTDYNIYWVRQAPGKGLEWMGLIDPDNGETFYAEKFQGRATMTADTSSDRAYMELTSLTFEDTATYYCATVSLKEAKGGYDYWGRGTLVTVSS VL: QSVLTQPPSVSGAPGQRVTISCTGSSSNIGAGYDVHWYQQLPGTAPKLLIYDNFNRPSGVPDRFSGSKSGTSASLAIIGLQTEDEADYYCQSYDSPTQTSPFGTGTKLTVL	IC50	nM	117
Antibody 10 scFv (scFv, V domains shown, Purified scFv) VH: QVQLVQSGAEVKKPGATVKLSCKVYGYIFTDYNIYWVRQAPGKGLEWMGLIDPDNGETFYAEKFQGRATMTADTSSDRAYMELTSLTFEDTATYYCATVSLRAAKGGYDYWGRGTLVTVSS VL: QSVLTQPPSVSGAPGQRVTISCTGSSSNIGAGYDVHWYQQLPGTAPKLLIYDNFNRPSGVPDRFSGSKSGTSASLAIIGLQTEDEADYYCQSYDSEQELAPFGTGTKLTVL	IC50	nM	116
Antibody 6 scFv (scFv, V domains shown, Purified scFv) VH: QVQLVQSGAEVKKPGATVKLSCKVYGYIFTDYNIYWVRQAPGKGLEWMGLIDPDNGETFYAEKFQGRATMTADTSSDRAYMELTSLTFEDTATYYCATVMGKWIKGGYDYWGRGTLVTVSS VL: QSVLTQPPSVSGAPGQRVTISCTGSSSNIGAGYDVHWYQQLPGTAPKLLIYDNFNRPSGVPDRFSGSKSGTSASLAIIGLQTEDEADYYCQSYDSTMRHGPFGTGTKLTVL	IC50	nM	11
Antibody 24 scFv (scFv, V domains shown, not shown: small tags and cut ends, Purified scFv) VH: QVQLVQSGAEVKKPGATVKLSCKVYGYIFTDYNIYWVRQAPGKGLEWMGLIDPDNGETFYAEKFQGRATMTADTSSDRAYMELTSLTFEDTATYYCATVTLKTAKGGYDYWGRGTLVTVSS VL: QSVLTQPPSVSGAPGQRVTISCTGSSSNIGAGYDVHWYQQLPGTAPKLLIYDNFNRPSGVPDRFSGSKSGTSASLAIIGLQTEDEADYYCQSYDSRNGYGGFGTGTKLTVL	IC50	nM	111
Antibody 8 scFv (scFv, V domains shown, Purified scFv) VH: QVQLVQSGAEVKKPGATVKLSCKVYGYIFTDYNIYWVRQAPGKGLEWMGLIDPDNGETFYAEKFQGRATMTADTSSDRAYMELTSLTFEDTATYYCATVLGRWIKGGYDYWGRGTLVTVSS VL: QSVLTQPPSVSGAPGQRVTISCTGSSSNIGAGYDVHWYQQLPGTAPKLLIYDNFNRPSGVPDRFSGSKSGTSASLAIIGLQTEDEADYYCQSYDSPTHTSPFGTGTKLTVL	IC50	nM	12

**Q:** Requested field: IC50. Item: Antibody 2 scFv (scFv, V domains shown, Purified scFv) VH: QVQLVQSGAEVKKPGATVKLSCKVYGYIFTDYNIYWVRQAPGKGLEWMGLIDPDNGETFYAEKFQGRATMTADTSSDRAYMELTSLTFEDTATYYCATVSLRSAKGGYDYWGRGTLVTVSS VL: QSVLTQPPSVSGAPGQRVTISCTGSSSNIGAGYDVHWYQQLPGTAPKLLIYDNFNRPSGVPDRFSGSKSGTSASLAIIGLQTEDEADYYCQSYDSSLSGSLFGTGTKLTVL
**A:** 317

**Q:** Queued: Antibody 5 scFv (scFv, V domains shown, Purified scFv) VH: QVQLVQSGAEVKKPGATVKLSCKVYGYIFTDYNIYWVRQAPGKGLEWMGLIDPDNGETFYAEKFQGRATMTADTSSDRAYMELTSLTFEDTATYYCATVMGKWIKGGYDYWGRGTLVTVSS VL: QSVLTQPPSVSGAPGQRVTISCTGSSSNIGAGYDVHWYQQLPGTAPKLLIYDNFNRPSGVPDRFSGSKSGTSASLAIIGLQTEDEADYYCQSYDSTKHTSPFGTGTKLTVL
**A:** 6
